Target: Prostaglandin G/H synthase 1 (Homo sapiens); note: assay procedure not described here
Sequence (P23219 whole entry): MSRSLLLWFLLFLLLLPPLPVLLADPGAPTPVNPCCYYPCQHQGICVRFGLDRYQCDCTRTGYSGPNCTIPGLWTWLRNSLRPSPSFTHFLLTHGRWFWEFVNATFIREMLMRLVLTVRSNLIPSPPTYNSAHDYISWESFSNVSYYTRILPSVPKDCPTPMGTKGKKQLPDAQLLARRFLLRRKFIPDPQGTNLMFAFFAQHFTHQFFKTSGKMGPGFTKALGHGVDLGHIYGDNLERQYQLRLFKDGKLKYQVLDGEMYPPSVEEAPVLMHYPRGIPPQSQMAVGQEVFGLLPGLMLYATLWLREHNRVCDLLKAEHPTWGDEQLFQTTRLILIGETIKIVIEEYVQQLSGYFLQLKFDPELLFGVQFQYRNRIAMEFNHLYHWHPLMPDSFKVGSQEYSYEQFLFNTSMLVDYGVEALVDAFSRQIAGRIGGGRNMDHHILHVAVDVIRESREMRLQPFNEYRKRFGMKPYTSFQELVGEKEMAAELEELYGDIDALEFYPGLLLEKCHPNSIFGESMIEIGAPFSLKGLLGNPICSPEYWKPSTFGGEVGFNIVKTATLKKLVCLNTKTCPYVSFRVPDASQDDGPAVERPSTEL
Assay type: functional
quantity-kind: AC50 (µM)
One number for each entry, in µM.

compound: CC(C)(C)NC[C@H](O)COc1ccccc1C1CCCC1
quantity-kind: AC50
value: 21.1

API: the following record is the query input.
Note to self: AC50 recorded for NNc1nnc(NN)c2ccccc12 [DIHYDRALAZINE] was 0.344

====

This section lists AC50 readings for UniProt:P18089.
Sequence (P18089 whole entry): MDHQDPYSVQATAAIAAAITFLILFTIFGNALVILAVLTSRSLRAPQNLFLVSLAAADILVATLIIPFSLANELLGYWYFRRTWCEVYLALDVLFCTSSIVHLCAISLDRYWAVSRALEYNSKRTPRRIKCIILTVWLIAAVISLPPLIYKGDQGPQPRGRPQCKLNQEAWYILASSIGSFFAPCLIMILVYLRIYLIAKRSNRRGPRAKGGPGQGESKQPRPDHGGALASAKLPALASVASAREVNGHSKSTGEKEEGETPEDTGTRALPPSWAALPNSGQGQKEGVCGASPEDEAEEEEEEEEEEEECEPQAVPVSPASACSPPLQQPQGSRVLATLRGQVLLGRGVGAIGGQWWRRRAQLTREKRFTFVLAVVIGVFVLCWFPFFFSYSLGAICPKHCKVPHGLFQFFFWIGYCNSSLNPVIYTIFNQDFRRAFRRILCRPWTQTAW

Please review the following examples before continuing.
compound: N#Cc1ccc([C@H]2CCc3cncn32)c(F)c1
value: > 10 µM
//
compound: O=C(O)C1=C(CSc2nnnn2CS(=O)(=O)O)CS[C@@H]2[C@H](NC(=O)[C@H](O)c3ccccc3)C(=O)N12
value: > 30 µM
//
compound: CCCc1nc(C(C)(C)O)c(C(=O)OCc2oc(=O)oc2C)n1Cc1ccc(-c2ccccc2-c2nnn[nH]2)cc1
value: > 10 µM
//
compound: C=CCC1(CC(C)C)C(=O)NC(=O)NC1=O
value: > 30 µM
//
compound: CC(=O)O[C@H]1CC[C@@]2(C)C(=CC[C@@H]3[C@@H]2CC[C@]2(C)C(c4cccnc4)=CC[C@@H]32)C1 [ABIRATERONE ACETATE]
value: > 30 µM

# return AC50 for each item in the list
1. COc1ccc(CC(C)(C)NC[C@H](O)c2cc(O)cc3c2OCC(=O)N3)cc1
2. C=CCN1CCCC1CNC(=O)c1cc(S(N)(=O)=O)cc(OC)c1OC (configuration not stated) [VERALIPRIDE]
3. C[C@H]1COc2c(C3(N)CC3)c(F)cc3c(=O)c(C(=O)O)cn1c23
4. OC(CNCC(O)C1CCc2cc(F)ccc2O1)C1CCc2cc(F)ccc2O1 (configuration not stated)
5. Clc1ccc2nsnc2c1NC1=NCCN1
6. Cc1cc(O)c(C(=O)N[C@@H](C(=O)N[C@@H]2C(=O)N3C(C(=O)O)=C(CSc4nnnn4C)CS[C@H]23)c2ccc(O)cc2)cn1 [CEFPIRAMIDE]

Return:
> 30 µM
3.2 µM
> 10 µM
4.5 µM
0.292 µM
> 30 µM

# return AC50 for each item in the list
1. CC(C)(C)NCC(O)COc1cccc2c1CCC(=O)N2 (configuration not stated)
2. CC(=O)OCC(=O)[C@@]12N=C(C)O[C@@H]1C[C@H]1[C@@H]3CCC4=CC(=O)C=C[C@]4(C)[C@H]3[C@@H](O)C[C@@]12C
3. O=C(NCCNCC(O)COc1ccc(O)cc1)N1CCOCC1 (configuration not stated)
4. NC(=O)CN1CC(O)CC1=O (configuration not stated)
5. CCC(C(=O)O)c1ccc(N2Cc3ccccc3C2=O)cc1 (configuration not stated)
6. COc1ccc(CCNCC(O)COc2cccc(C)c2)cc1OC (configuration not stated)

Return:
["> 10 µM", "> 30 µM", "> 30 µM", "> 30 µM", "> 30 µM", "> 10 µM"]
